Test system: Acinetobacter baumannii
Procedure Details: Antibacterial activity against Acinetobacter baumannii LMG1041 after 16 to 24 hrs by broth microdilution method
Assay type: functional
Endpoint Label: MIC

May I ask what MIC has been recorded for CCCC(=O)C1=C(O)C[C@@H](CC)OC1=O ? > 64 µg/mL

Next: CCCCCCCCC[C@@H]1CC(O)=C(C(=O)CCC)C(=O)O1 12 to 24 µg/mL

Next: CCCCCCCCC[C@@H]1CC(O)=C(C(C)=O)C(=O)O1 > 64 µg/mL

Next: CCCCCCCCC[C@@H]1CC(O)=C(C(=O)CCCCC)C(=O)O1 4 to 8 µg/mL

Next: CCCCCCCCCC[C@@H]1CC(O)=C(C(=O)CCC)C(=O)O1 8 to 16 µg/mL

Next: CCCCCCCC[C@@H]1CC(O)=C(C(=O)CCC)C(=O)O1 24 to 32 µg/mL

Next: CCCCCCCCC[C@@H]1CC(O)=C(C(=O)CCCC)C(=O)O1 8 to 16 µg/mL

Next: CCCCCCCCC[C@@H]1CC(O)=C(C(=O)CC)C(=O)O1 32 to 48 µg/mL

Next: CCCCCCCCCCC[C@@H]1CC(O)=C(C(=O)CCC)C(=O)O1 < 4 µg/mL

Next: CCCCCCC[C@@H]1CC(O)=C(C(=O)CCC)C(=O)O1 > 64 µg/mL

###

Procedure Details: Cytotoxicity against human HuH7 cells after 48 hrs by XTT assay
Assay type: cell-based, Huh-7
Endpoint Label: CC50 at 48 h (µg/mL)
Could you give me the number in µg/mL? Just the number is fine.

May I ask what CC50 at 48 h has been recorded for CCCCCCCCC[C@@H]1CC(O)=C(C(=O)CCC)C(=O)O1 ? 40

###

Procedure Details: Cytotoxicity against human HepG2 cells after 48 hrs by XTT assay
Format: cell-based
Endpoint Label: CC50 at 48 h (µg/mL)
Could you give me the number in µg/mL? Just the number is fine.

May I ask what CC50 at 48 h has been recorded for CCCCCCCCC[C@@H]1CC(O)=C(C(=O)CC)C(=O)O1 ? 50

Next: CCCCCCCCCCC[C@@H]1CC(O)=C(C(=O)CCC)C(=O)O1 19

Next: CCCCCCCCC[C@@H]1CC(O)=C(C(=O)CCCCC)C(=O)O1 15

Next: CCCCCCCCC[C@@H]1CC(O)=C(C(=O)CCCC)C(=O)O1 36

Next: CCCCCCCCC[C@@H]1CC(O)=C(C(C)=O)C(=O)O1 71

Next: CCCCCCCCCC[C@@H]1CC(O)=C(C(=O)CCC)C(=O)O1 25

Next: CCCCCCCCC[C@@H]1CC(O)=C(C(=O)CCC)C(=O)O1 33

Next: CCCCCCCC[C@@H]1CC(O)=C(C(=O)CCC)C(=O)O1 30

###

Procedure Details: Cytotoxicity against human MT4 cells after 48 hrs by XTT assay
Assay type: cell-based
Endpoint Label: CC50 at 48 h (µg/mL)
Could you give me the number in µg/mL? Just the number is fine.

May I ask what CC50 at 48 h has been recorded for CCCCCCCCC[C@@H]1CC(O)=C(C(=O)CCC)C(=O)O1 ? 4.7
